compounds and their reported inhibition at 100 µM
# Tested system: SARS-CoV-2 Mac1 (Severe acute respiratory syndrome coronavirus 2, UniProt P0DTD1)
# Run description: biochemical
# Study conditions: read-out: %inhibition
Counter-ions that a name gives are not always drawn.
State the result as a value with its unit after it.

// worked examples, inhibition at 100 µM included
Compound: CC(C)(Oc1ccc(CCNC(=O)c2ccc(Cl)cc2)cc1)C(=O)O [Bezafibrate]
inhibition at 100 µM: 9.85%
--
Compound: COc1ccc([C@@H]2Sc3ccccc3N(CCN(C)C)C(=O)[C@@H]2OC(C)=O)cc1 [Diltiazem HCl]
inhibition at 100 µM: 25.7%
--
Compound: CC1(C)O[C@@H]2[C@@H](CO[C@@]3(COS(N)(=O)=O)OC(C)(C)O[C@@H]23)O1 [Topiramate]
inhibition at 100 µM: 0%
--
Compound: CC(=O)OCC(=O)[C@@]1(O)CC[C@H]2[C@@H]3CCC4=CC(=O)CC[C@]4(C)[C@H]3[C@@H](O)C[C@@]21C [Hydrocortisone acetate]
inhibition at 100 µM: 0%
--
Compound: COc1cc(NS(C)(=O)=O)ccc1Nc1c2ccccc2nc2ccccc12 [Amsacrine hydrochloride]
inhibition at 100 µM: 27%

Summary line: C[C@]12CCC(=O)C=C1[C@@H]1C[C@@H]1[C@H]1[C@@H]3[C@@H]4C[C@@H]4[C@@]4(CCC(=O)O4)[C@@]3(C)CC[C@@H]12 [Drospirenone] , SARS-CoV-2 Mac1 (Severe acute respiratory syndrome coronavirus 2, UniProt P0DTD1), reported inhibition at 100 µM = 0%

Reading of inhibition at 100 µM for Nc1ccn([C@@H]2O[C@H](CO)[C@@H](O)[C@@H]2O)c(=O)n1 [Cytarabine] with SARS-CoV-2 Mac1 (Severe acute respiratory syndrome coronavirus 2, UniProt P0DTD1): 0%

Record for CO[C@@]1(NC(=O)C(C(=O)O)c2ccc(O)cc2)C(=O)N2C(C(=O)O)=C(CSc3nnnn3C)CO[C@@H]21 (stereo partly drawn) [Latamoxef sodium] under target or system SARS-CoV-2 Mac1 (Severe acute respiratory syndrome coronavirus 2, UniProt P0DTD1): inhibition at 100 µM reported as 17%

Known value: SARS-CoV-2 Mac1 (Severe acute respiratory syndrome coronavirus 2, UniProt P0DTD1) inhibition at 100 µM of the compound Cc1nccn1CCC(C(N)=O)(c1ccccc1)c1ccccc1 [Imidafenacin] equals 8.33%

The compound CCC[S+]([O-])c1ccc2[nH]c(NC(=O)OC)nc2c1 (stereo not drawn) [Albendazole Oxide] on SARS-CoV-2 Mac1 (Severe acute respiratory syndrome coronavirus 2, UniProt P0DTD1): inhibition at 100 µM was 28%

SARS-CoV-2 Mac1 (Severe acute respiratory syndrome coronavirus 2, UniProt P0DTD1) inhibition at 100 µM of Cc1c(OCC(F)(F)F)ccnc1C[S+]([O-])c1nc2ccccc2[nH]1 (stereo not drawn) [Lansoprazole] is 4.45%

Record CC(C)(Oc1ccc(Cl)cc1)C(=O)OCCOC(=O)c1cccnc1 [Etofibrate] ; system SARS-CoV-2 Mac1 (Severe acute respiratory syndrome coronavirus 2, UniProt P0DTD1); inhibition at 100 µM = 4.59%

Observed inhibition at 100 µM, SARS-CoV-2 Mac1 (Severe acute respiratory syndrome coronavirus 2, UniProt P0DTD1), CC1(O)CCC(C(C)(C)O)CC1 (stereo not drawn) [Terpin hydrate] : 0%
